# assayedSystem: HER2 extracellular domain (ECD) (UniProt P04626 23-652)
# protocolSummary: flow cytometry on protein-coated beads; random-library background subtracted; Hanks buffer (SELEX binding buffer with 0.1 mg/mL salmon sperm DNA and 1 mg/mL BSA), 37 C, 30 min; pH not stated; aptamer pool heated 95 C 5 min then iced in SELEX
# experimentalParameters: protein: commercial; tags: covalently coupled to magnetic beads; label: FITC (5' via primer P1 in SELEX)
readoutName: pKd
pKd (log units): -log10 of the concentration in mol/L.

Lab note: measured pKd of HB5 (ssDNA) DNA: AACCGCCCAAATCCCTAAGAGTCTGCACTTGTCATTTTGTATATGTATTTGGTTTTTGGCTCTCACAGACACACTACACACGCACA was 6.50
